Test system: Salmonella typhimurium LT-2
Experiment: Minimum Inhibitory Concentration (MIC), antibacterial spectrum in vitro
Assay type: cell-based
Details: Salmonella enterica; Salmonella typhimurium LT-2; read-out: Minimum Inhibitory Concentration (MIC)
Where a name gives a salt, the structure may show the parent alone.
MIC values by entry
endpoint: MIC

# compound, endpoint, result
records = [
    ("CON=C(C(=O)NC1C(=O)N2C(C(=O)[O-])=C(CSc3cc[n+](C)cc3)COC12)c1csc(N)n1 (stereo not drawn)", "MIC", "< 0.025 µg/mL"),
    ("CC1OC2C(NC(=O)C(=NOCC(=O)O)c3csc(N)n3)C(=O)N2C(C(=O)[O-])=C1CSc1cc[n+](CC(=O)O)cc1 (stereo not drawn) [Compound 9, (Sodium Salt)]", "MIC", "< 0.025 µg/mL"),
    ("CCN1CCN(C(=O)NC(C(=O)NC2C(=O)N3C(C(=O)[O-])=C(CSc4cc[n+](CC(=O)O)cc4)COC23)c2csc(N)n2)C(=O)C1=O (racemic) [Compound 21, (Sodium Salt)]", "MIC", "0.1 µg/mL"),
    ("CC1OC2C(NC(=O)C(=NOC(C)(C)C(=O)O)c3csc(N)n3)C(=O)N2C(C(=O)[O-])=C1CSc1cc[n+](CC(F)(F)F)cc1 (stereo not drawn) [Compound 4, (Sodium Salt)]", "MIC", "0.05 µg/mL"),
    ("CC[n+]1ccc(SCC2=C(C(=O)[O-])N3C(=O)C(NC(=O)C(=NOC(C)(C)C(=O)O)c4csc(N)n4)C3OC2C)cc1 (stereo not drawn) [Compound 2, (Sodium Salt)]", "MIC", "< 0.025 µg/mL"),
    ("CCON=C(C(=O)NC1C(=O)N2C(C(=O)[O-])=C(CSc3cc[n+](CC(=O)O)cc3)COC12)c1csc(N)n1 (stereo not drawn) [Compound 12, (Sodium Salt)]", "MIC", "< 0.025 µg/mL"),
]

Values from patent US4645769A
